- Test system: genotype 1b NS3/4a protease inhibitor resistant variant D168A transient HCV replicon in Huh-7-derived cells
- Protocol text: Transient-transfected HCV replicon EC50, genotype 1b D168A
- Format: cell-based, hepatitis C virus
- Measurement context: Hepatitis C virus, 72 h, read-out: EC50 1B D168A, transient-transfected replicon genotype 1b D168A resistant variant, 72 h
The label is Criterion met for EC50 below 80 nM and Criterion not met for EC50 equal to or exceeding 80 nM.

[[record]]
smiles_data = "COc1ccc2nc3c(nc2c1)O[C@H]1CN(C(=O)[C@H](C(C)(C)C)NC(=O)O[C@@H]2CC4CC(C4)[C@H]2CCCCC3)[C@H](C(=O)N[C@]2(C(=O)NS(=O)(=O)C3CC3)C[C@H]2C(F)F)[C@@H]1C"
assigned_label = "Criterion met"

[[record]]
smiles_data = "COc1ccc2nc3c(nc2c1)O[C@H]1CN(C(=O)[C@H](C(C)(C)C)NC(=O)O[C@@]2(C)C[C@@H]2CCCCC3)[C@H](C(=O)N[C@]2(C(=O)NS(=O)(=O)C3(C)CC3)C[C@H]2C(F)F)[C@@H]1C"
assigned_label = "Criterion not met"

[[record]]
smiles_data = "COc1ccc2nc3c(nc2c1)O[C@H]1CN(C(=O)[C@H](C(C)(C)C)NC(=O)O[C@@H]2CCC[C@H]2CCCCC3)[C@H](C(=O)N[C@]2(C(=O)NS(=O)(=O)C3(C)CC3)C[C@H]2C(F)F)[C@@H]1C"
assigned_label = "Criterion met"

[[record]]
smiles_data = "CC[C@@H]1[C@@H]2CN(C(=O)[C@H](C(C)(C)C)NC(=O)O[C@@H]3C[C@H]3CCCCC(F)(F)c3nc4ccccc4nc3O2)[C@@H]1C(=O)N[C@]1(C(=O)NS(=O)(=O)C2CC2)C[C@H]1C(F)F"
assigned_label = "Criterion met"

[[record]]
smiles_data = "COc1ccc2nc3c(nc2c1)O[C@H]1CN(C(=O)[C@H](C(C)(C)C)NC(=O)O[C@@H]2C[C@H]2CCCCC3)[C@H](C(=O)N[C@]2(C(=O)NS(=O)(=O)C3(C)CC3)C[C@H]2CC(F)F)[C@@H]1C"
assigned_label = "Criterion not met"

